test: PAMPA (parallel artificial membrane permeability assay); assay type: in vitro ADME; conditions: PAMPA; membrane permeation rate (Pe); 50 mM MOPSO buffer pH 6.5 with 5.0% glycocholic acid, 37° C., 18 hours; read-out: iPAMPA Pe
Positions of bridges follow the written chain, without caps; N, C: chain ends. Non-standard residues stand in square brackets, D forms with d. Residues, ends and D or L forms follow the SMILES beside them. *: point of attachment. NMeF = CN[C@@H](Cc1ccccc1)C(=O)O; NMeL = CN[C@@H](CC(C)C)C(=O)O; NMeV = CN[C@H](C(=O)O)C(C)C; NMeA = CN[C@@H](C)C(=O)O; Piperidide = C1CCN(*)CC1; dNMeA = CN[C@H](C)C(=O)O; Sar = CNCC(=O)O
I'd be grateful if you could share measured Papp at 18 hours, 50 µM for these entries.
Quick note: unit goes after the number.

[
  {
    "COMPOUND": "CC(C)C[C@H]1C(=O)N[C@@H](Cc2ccccc2)C(=O)N[C@@H]([C@@H](C)O)C(=O)N(C)[C@@H](C)C(=O)N(C)[C@@H](Cc2ccccc2)C(=O)N(C)[C@@H](C(C)C)C(=O)NCC(=O)N[C@H](C(=O)N(C)[C@@H](Cc2ccccc2)C(=O)N[C@@H](C)C(=O)N2CCCCC2)CC(=O)N(C)[C@H](C)C(=O)N[C@@H](C)C(=O)N1C [DP-355] ([dNMeA]A[NMeL]FT[NMeA][NMeF][NMeV]GD[NMeF]A-Piperidide; lactam N-10)",
    "Papp at 18 hours, 50 µM": "17 ×10⁻⁶ cm/s"
  }
]

Give Papp at 18 hours, 50 µM for all compounds that follow.
1. CC(C)C[C@@H]1NC(=O)[C@H](CC(C)C)N(C)C(=O)[C@H](C)NC(=O)[C@H](C(C)C)N(C)C(=O)[C@H](Cc2ccccc2)NC(=O)CN(C)C(=O)[C@H]([C@@H](C)O)NC(=O)[C@H](C)N(C)C(=O)[C@H](CC(C)C)N(C)C(=O)[C@@H](C)NC(=O)C[C@@H](C(=O)N2CCCCC2)NC1=O [DP-95] ([dA][NMeL][NMeA]T[Sar]F[NMeV]A[NMeL]LD-Piperidide; lactam N-11)
2. CC(C)C[C@@H]1NC(=O)[C@@H](C)N(C)C(=O)C[C@@H](C(=O)N(C)[C@@H](Cc2ccccc2)C(=O)N[C@@H](C)C(=O)N2CCCCC2)NC(=O)[C@H](Cc2ccccc2)N(C)C(=O)[C@H](CC(C)C)N(C)C(=O)[C@H](Cc2ccccc2)NC(=O)[C@H]([C@@H](C)O)NC(=O)[C@H](CC(C)C)N(C)C(=O)[C@H](CC(C)C)N(C)C1=O [DP-359] ([dNMeA]L[NMeL][NMeL]TF[NMeL][NMeF]D[NMeF]A-Piperidide; lactam N-9)
3. CC(C)C[C@H]1C(=O)N[C@@H]([C@@H](C)O)C(=O)N(C)[C@@H](C)C(=O)N[C@H](C(=O)N(C)[C@@H](Cc2ccccc2)C(=O)N[C@@H](C)C(=O)N2CCCCC2)CC(=O)N(C)[C@H](C)C(=O)N(C)[C@@H](Cc2ccccc2)C(=O)N(C)[C@@H](C)C(=O)N[C@@H](C)C(=O)N(C)[C@@H](C)C(=O)N(C)[C@@H](Cc2ccccc2)C(=O)N1C [DP-353] ([dNMeA][NMeF][NMeA]A[NMeA][NMeF][NMeL]T[NMeA]D[NMeF]A-Piperidide; lactam N-10)

### Response
7.3 ×10⁻⁶ cm/s
43 ×10⁻⁶ cm/s
16 ×10⁻⁶ cm/s

FYI, the data here is from patent US9409952B2.
